system.name: BdDHS2 (3-deoxy-D-arabino-heptulosonate 7-phosphate synthase) (Brachypodium distachyon)
Construct: gene LOC100821423; without the predicted plastid transit peptide
Sequence (I1I809 51-503): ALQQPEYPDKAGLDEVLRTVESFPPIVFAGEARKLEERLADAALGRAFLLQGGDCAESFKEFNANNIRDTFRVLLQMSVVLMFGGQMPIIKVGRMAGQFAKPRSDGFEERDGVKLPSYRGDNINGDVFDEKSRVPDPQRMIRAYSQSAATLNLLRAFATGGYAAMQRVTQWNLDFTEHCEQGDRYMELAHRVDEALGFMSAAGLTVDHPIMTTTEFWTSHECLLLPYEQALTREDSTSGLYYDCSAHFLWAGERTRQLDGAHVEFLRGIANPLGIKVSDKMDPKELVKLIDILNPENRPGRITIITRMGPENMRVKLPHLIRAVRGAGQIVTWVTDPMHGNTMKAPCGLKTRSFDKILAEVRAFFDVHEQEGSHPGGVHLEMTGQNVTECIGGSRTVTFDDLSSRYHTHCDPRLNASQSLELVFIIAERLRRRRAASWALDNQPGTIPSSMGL
assay.details: recombinant purified enzyme, DHS activity (PEP consumption at […] nm)
Type: biochemical
run.parameters: read-out: IC50 / (μM Agn)
experimental.endpoint: IC50 (µM)

* N[C@@H](C[C@]1(C(=O)O)C=C[C@@H](O)C=C1)C(=O)O [arogenate] | 91

----------
system.name: BdTyrAnc (non-canonical arogenate dehydrogenase) (Brachypodium distachyon)
Construct: gene LOC100829970; without the predicted plastid transit peptide, poly-histidine tag
Sequence (I1GYB3 51-361): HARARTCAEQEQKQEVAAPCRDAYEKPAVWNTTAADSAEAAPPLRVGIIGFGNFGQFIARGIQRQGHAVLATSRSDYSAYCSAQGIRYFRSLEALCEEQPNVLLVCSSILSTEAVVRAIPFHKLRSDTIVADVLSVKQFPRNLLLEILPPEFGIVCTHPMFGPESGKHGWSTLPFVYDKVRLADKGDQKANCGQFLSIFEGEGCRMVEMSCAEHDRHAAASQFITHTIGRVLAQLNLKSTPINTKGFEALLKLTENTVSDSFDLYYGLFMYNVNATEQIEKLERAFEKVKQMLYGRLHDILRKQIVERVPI
assay.details: recombinant purified enzyme, arogenate dehydrogenase assay (NADPH at […] nm); Ki calculated from IC50 and Km
Type: biochemical
run.parameters: read-out: Ki / (μM tyrosine)
experimental.endpoint: Ki

• N[C@@H](Cc1ccc(O)cc1)C(=O)O = 64 µM

----------
system.name: BdDHS2 (3-deoxy-D-arabino-heptulosonate 7-phosphate synthase) (Brachypodium distachyon)
Construct: gene LOC100821423; without the predicted plastid transit peptide
assay.details: recombinant purified enzyme, DHS activity assay
Type: biochemical
run.parameters: read-out: IC50 / (μM Trp)
experimental.endpoint: IC50 (µM)

- N[C@@H](Cc1c[nH]c2ccccc12)C(=O)O: 120
